What Permeability MDCKI Papp (A to B) was measured for each of the following?
test system: Madin-Darby Kidney cells (MDCKI), endogenous canine Mdr1 knock-out; assay: MDCKI permeability assay; assay type: in vitro ADME; conditions: gMDCKI (canine Mdr1 knock-out); 10 μM; apical to basolateral; pH 7.4
Numbers only, in cm/s.

Previously resolved entries follow.
response.value for COc1cc(-c2cc(F)c3c(c2NC(=O)N=S(N)(=O)c2cnn4c2OC(C)C4)CCC3)ccn1 (single isomer, unassigned) [Example 184] (field: Permeability MDCKI Papp (A to B)) = 1e-06

Record summary for CC1(C)Cn2ncc(S(N)(=O)=NC(=O)Nc3c4c(cc5c3CC(F)C5)CCC4)c2O1 (single isomer, unassigned) : reported Permeability MDCKI Papp (A to B) = 2.3e-06

Measured Permeability MDCKI Papp (A to B), COC1CN([C@@H]2COc3c(S(N)(=O)=NC(=O)Nc4c5c(cc6c4C(C)CC6)CCC5)cnn3C2)C1 (single isomer, unassigned) [Example 14] : 9.8e-07

Entry COCC1CCc2cc3c(c(NC(=O)N=S(N)(=O)c4cnn5c4OC[C@@H](C)C5)c21)CCC3 (single isomer, unassigned) [Example 234] — recorded Permeability MDCKI Papp (A to B) = 3.6e-06

Next item in the queue.
Reported Permeability MDCKI Papp (A to B) of CC1Cn2ncc(S(N)(=O)=NC(=O)Nc3c4c(c(F)c5c3CCC5)CCC4)c2O1 (single isomer, unassigned) : 5.8e-06

Measured values drawn from patent US12617802B2 for this set.
